# TEST_SYSTEM: human recombinant 5-HT2A receptor (Homo sapiens (Human))
# Sequence (P28223 whole entry): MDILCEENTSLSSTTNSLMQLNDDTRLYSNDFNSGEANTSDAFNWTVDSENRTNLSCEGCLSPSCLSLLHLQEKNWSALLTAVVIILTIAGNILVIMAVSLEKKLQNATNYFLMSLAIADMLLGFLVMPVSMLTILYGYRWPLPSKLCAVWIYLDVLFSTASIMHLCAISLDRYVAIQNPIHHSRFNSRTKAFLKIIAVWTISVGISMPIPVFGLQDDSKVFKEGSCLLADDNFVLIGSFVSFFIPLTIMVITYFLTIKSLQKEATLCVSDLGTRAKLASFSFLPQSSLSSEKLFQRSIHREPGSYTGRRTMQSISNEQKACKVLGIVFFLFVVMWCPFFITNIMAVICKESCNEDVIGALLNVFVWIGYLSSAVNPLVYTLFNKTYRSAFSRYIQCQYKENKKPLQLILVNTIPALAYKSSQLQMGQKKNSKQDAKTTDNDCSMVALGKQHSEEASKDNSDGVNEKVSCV
# PROTOCOL_DESCRIPTION: 5-HT2A receptor binding inhibition test ([3H]-Ketanserin)
# CONDITIONS: Jump-In HEK cell membrane, read-out: human serotonin 5-HT2A receptor binding activity, Ki value
Could you please report measured Ki for the items listed next?
Give bare numbers, in nM.

// each listed compound needs a value for Ki
1. CCCCOc1ccc(CN(Cc2coc(C)n2)C(=O)CN2CCN(C)CC2)cc1F [Compound I-126]
2. CN1CCC(NC(=O)N(Cc2cnn(C)n2)Cc2ccc(OCC(F)(F)C(F)(F)F)cc2F)CC1 [Compound I-122]
3. CC(C)COc1ccc(CN(Cc2cnn(C)n2)C(=O)NC2CCN(C)CC2)cc1 [Compound I-101]
4. CC(C)COc1ccc(CN(Cc2ccc(F)cn2)C(=O)N[C@H]2CCNC[C@H]2F)cc1 (single isomer, unassigned) [Compound I-006]
5. CCCCOc1ccc(CN(Cc2cnn(C)n2)C(=O)NC2CCN(C)CC2)c(F)c1 [Compound I-102]
6. CC(C)COc1ccc(CN(Cc2cnn(C)n2)C(=O)NC2CCN(C)CC2)c(F)c1 [Compound I-118]
7. CCCCOc1ccc(CN(Cc2coc(C3CC3)n2)C(=O)NC2CCN(C)CC2)cc1 [Compound I-110]

### Response
1.24
0.824
0.683
0.968
0.642
1.03
0.537
